target: CDK2 (Homo sapiens); construct: endogenous in cells; host or cells: MDA-MB-231; test: CDK protein degradation activity (Western blotting), CDK2; assay type: cell-based; conditions: MDA-MB-231 cells, 1 μM, 16 hours, Western blot
MEASUREMENT_NAME: Enzyme degradation CDK2 (% remaining) @ 1 μM (%)

a. O=C1CC[C@@H](c2ccc(OCC(=O)N3CCC4(CC(N5CCN(c6ccc(Nc7ncnc8c7ncn8C7CC(NC(=O)Cc8ccccc8)C7)cc6)CC5)C4)C3)cc2)C(=O)N1 (some centres unmarked) [Compound 268]
b. O=C1CC[C@H](N2C(=O)c3ccc(N4CCC(C(=O)N5CCC(N6CCN(c7ccc(Nc8ncnc9c8ncn9[C@H]8C[C@@H](NC(=O)Cc9ccccc9)C8)cc7)CC6)CC5)CC4)cc3C2=O)C(=O)N1 [Compound 343]
Q: Between item a and item b , which reported Enzyme degradation CDK2 (% remaining) @ 1 μM is smaller? # reply format: chosen label
Result: b

###

biological target: CDK2 (Homo sapiens); construct: endogenous in cells; host or cells: MDA-MB-231; test: CDK protein degradation activity (Western blotting), CDK2; format: cell-based; details: MDA-MB-231 cells, 10 μM, 16 hours, Western blot
MEASUREMENT_NAME: Enzyme degradation CDK2 (% remaining) @ 10 μM (%)

Previously resolved entries follow.
N#Cc1cccc(C(=O)NC2CC(n3cnc4c(Nc5ccc(N6CCN(CC7CCN(c8ccc9c(c8)C(=O)N([C@H]8CCC(=O)NC8=O)C9=O)CC7)CC6)cc5)ncnc43)C2)n1 (some centres unmarked)
10
O=C1CC[C@H](N2C(=O)c3ccc(N4CC(C(=O)N5CCN(CCC6CCN(c7ccc(Nc8ncnc9c8ncn9[C@H]8C[C@@H](NC(=O)Cc9ccccc9)C8)cc7)CC6)CC5)C4)cc3C2=O)C(=O)N1
70
Cc1cccc(C(=O)N[C@H]2C[C@@H](n3cnc4c(NC5CCN(CCCCCCNc6ccc7c(c6)C(=O)N([C@H]6CCC(=O)NC6=O)C7=O)CC5)ncnc43)C2)n1
50

1. Cc1cccc(C(=O)NC2CC(n3cnc4c(NCCC5CCN(CC6CCN(c7ccc8nnn([C@H]9CCC(=O)NC9=O)c(=O)c8c7)CC6)CC5)ncnc43)C2)n1 (some centres unmarked)
2. O=C1CC[C@H](n2nnc3ccc(N4CCN(C5CCN(c6ccc(Nc7ncnc8c7ncn8C7CC(NC(=O)Cc8ccccc8)C7)cc6)CC5)CC4)cc3c2=O)C(=O)N1 (some centres unmarked)
Q: Among 1 and 2 , which shows a numerically higher Enzyme degradation CDK2 (% remaining) @ 10 μM result? # reply format: chosen label
Result: 1

###

biological target: CDK2 (Homo sapiens); construct: endogenous in cells; host or cells: MDA-MB-231; test: CDK protein degradation activity (Western blotting), CDK2; assay type: cell-based; conditions: MDA-MB-231 cells, 10 μM, 16 hours, Western blot
MEASUREMENT_NAME: Enzyme degradation CDK2 (% remaining) @ 10 μM (%)

Cc1cccc(C(=O)N[C@H]2C[C@@H](n3cnc4c(NC5CCN(CCC6CCN(C(=O)CNc7ccc8c(c7)C(=O)N([C@H]7CCC(=O)NC7=O)C8=O)CC6)CC5)ncnc43)C2)n1 (racemic)
50

1. Cc1cccc(C(=O)NC2CC(n3cnc4c(Nc5ccc(N6CCN(CCC7CCN(c8ccc9c(c8)C(=O)N([C@H]8CCC(=O)NC8=O)C9=O)CC7)CC6)cc5)ncnc43)C2)n1 (some centres unmarked)
2. O=C1CC[C@H](N2C(=O)c3ccc(OCC(=O)N4CCC(CN5CCC(CNc6ncnc7c6ncn7C6CC(NC(=O)c7c(Cl)cccc7Cl)C6)CC5)CC4)cc3C2=O)C(=O)N1 (some centres unmarked)
3. Cc1cccc(C(=O)N[C@H]2C[C@@H](n3cnc4c(NCCC5CCN(CC6CCN(C(=O)CCNc7ccc8c(c7)C(=O)N([C@H]7CCC(=O)NC7=O)C8=O)CC6)CC5)ncnc43)C2)n1 (racemic)
Q: Rank ascending by Enzyme degradation CDK2 (% remaining) @ 10 μM. Arrange the labels as the request states and list them.
Result: 1, 2, 3
(1: 30%, 2: 70%, 3: 100%)
